# Test system: Fam108b (ABHD17B) [Mus musculus], recombinant soluble
# measurement-notes: inhibition of soluble recombinant Fam108b, SAR follow-up, biochemical, gel-based ABPP, soluble form (AID 588589)
# experimental-context: fluorophosphonate probe, at 5 µM, stronger effect = higher value
recorded-endpoint: inhibition (%)

a: O=c1oc(-c2ccco2)nc2c1cnn2-c1ccccc1
b: CCCOc1cccc(-c2nc3cc(OC)c(OC)cc3c(=O)o2)c1
c: COCc1nsc2nc(-c3ccccc3Cl)oc(=O)c12
Request: Take the compounds listed above and rank them by inhibition; the top slot goes to the highest value. Form entry: labels listed in requested order.
Response: a, b, c
(a: 50%, b: 10%, c: 0%)

a: CCOc1ccc(-c2csc3nc(-c4ccc(F)cc4)oc(=O)c23)cc1
b: O=c1oc(-c2cccs2)nc2c1cnn2-c1ccccc1
Request: Could you tell me which of these two has the smaller inhibition figure? First: a Second: b Which one? Tell me its label.
Response: a
